molecular target: RIPK1 (recombinant GST-RIPK1 kinase domain, residues 1-327) (Homo sapiens (Human)); experiment: RIPK1-ADP-Glo Enzymatic Assay; assay type: biochemical; settings: ADP-Glo; 25 nM GST-RIPK1, 300 μM ATP; assay lower limit ~25 nM; read-out: RIPK1 V0 Ec50
Where a name gives a salt, the structure may show the parent alone.
Attribute measured: log10(EC50) (log10 of the value in nM)
// units: nM (pre-log); metric: EC50; scale: log10

Solved entries (count: 8):
O=C(c1ccn(C(F)F)n1)N1CCC2(CC1)O[C@@H]1CC[C@@H](c3cc(F)cc(F)c3)N1C2=O: 2.11
O=C(c1ccc(-n2nccn2)cc1)N1CCC2(CC1)O[C@@H]1CC[C@@H](c3cc(F)cc(F)c3)N1C2=O: 2.94
O=C1N2[C@@H](CC[C@H]2c2ccccc2F)OC12CN(S(=O)(=O)c1ccc(F)cc1)C2: 2.54
O=C(c1cc(C(F)(F)F)cnn1)N1CCC2(CC1)O[C@@H]1CC[C@@H](c3cc(F)cc(F)c3)N1C2=O: 2.74
CC1CC2(CCN1C(=O)c1ncccc1F)O[C@@H]1CC[C@@H](c3cccc(F)c3)N1C2=O (some centres unmarked) [Example 6.162]: 1.58
O=C1N2[C@@H](CC[C@H]2c2cc(F)cc(F)c2)OC12CCN(c1ccc(OCC3CCO3)c3ccnn13)CC2 (mixture of isomers) [Example 19.5, TFA salt]: 2.32
O=C1N2[C@@H](CC[C@H]2c2ccccc2F)OC12CN(c1ccnc3ccnn13)C2: 1.43
COc1cc(F)cc([C@@H]2CC[C@H]3OC4(CCN(C(=O)c5ccccc5)CC4)C(=O)N32)c1: 1.61

## Input Item `O=C(c1ncccc1F)N1CCC2(CC1)O[C@@H]1CC[C@@H](c3cc(F)cc(F)c3)N1C2=O` has what recorded log10(EC50)?
## Output 1.65

* * *

Record form. Attribute: pEC50. Fill in for each entry.
target: RIPK1 (recombinant GST-RIPK1 kinase domain, residues 1-327) (Homo sapiens (Human), UniProt Q13546); experiment: RIPK1-ADP-Glo Enzymatic Assay; assay type: biochemical; conditions: ADP-Glo; 25 nM GST-RIPK1, 300 μM ATP; assay lower limit ~25 nM; read-out: RIPK1 V0 Ec50
Sequence (Q13546 1-327): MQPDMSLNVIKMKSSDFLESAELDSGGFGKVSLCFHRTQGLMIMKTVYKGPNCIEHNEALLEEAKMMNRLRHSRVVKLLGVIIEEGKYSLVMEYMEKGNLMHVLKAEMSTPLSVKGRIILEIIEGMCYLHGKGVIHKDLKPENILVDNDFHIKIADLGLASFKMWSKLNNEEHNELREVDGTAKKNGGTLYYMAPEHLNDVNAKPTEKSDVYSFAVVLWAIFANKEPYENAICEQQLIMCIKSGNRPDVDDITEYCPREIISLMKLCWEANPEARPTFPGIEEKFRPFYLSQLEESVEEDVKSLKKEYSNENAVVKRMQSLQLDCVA
Counter-ions that a name gives are not always drawn.
One number for each entry, as −log10 of the molar value.

Batch request: pEC50 for each of the following compounds.
1. O=C(c1cnccn1)N1CCC2(CC1)O[C@@H]1CC[C@@H](c3cc(F)cc(F)c3)N1C2=O [Example 6.85]
2. O=C(c1ccccc1)N1CCC2(CC1)O[C@@H]1CC[C@@H](c3cnccn3)N1C2=O [Example 17.1, TFA]
3. CC1CN(C(=O)c2ccccc2)CCC12O[C@@H]1CC[C@@H](c3cc(F)cc(F)c3)N1C2=O (single isomer, unassigned) [Example 2.5]

## Output
7.43
7.46
7.39

* * *

biological target: RIPK1 (recombinant GST-RIPK1 kinase domain, residues 1-327) (Homo sapiens (Human), UniProt Q13546); assay: RIPK1-ADP-Glo Enzymatic Assay; type: biochemical; conditions: ADP-Glo; 25 nM GST-RIPK1, 300 μM ATP; assay lower limit ~25 nM; read-out: RIPK1 V0 Ec50
Counter-ions that a name gives are not always drawn.
Kindly state pEC50 for each of the entries shown.
Numbers only, as −log10 of the molar value.

CSc1nc(N2CCC3(CC2)O[C@@H]2CC[C@@H](c4cc(F)cc(F)c4)N2C3=O)n2nccc2n1 [Example 4.86, TFA salt]: 6.57
N#Cc1cc(N2CCC3(O[C@@H]4CC[C@@H](c5ccccc5)N4C3=O)C(F)C2)ncn1 (single isomer, unassigned) [Example 4.95]: 7.23

For every item in the list below, what is its measured pEC50?
1. Cc1onc(C(=O)N2CCC3(CC2)O[C@@H]2CC[C@@H](c4cc(F)cc(F)c4)N2C3=O)c1C [Example 6.57]
2. COC(=O)c1cnc(N2CCC3(CC2)O[C@@H]2CC[C@@H](c4ccccc4)N2C3=O)cc1OC [Example 4.210]

## Output
6.37
7.12

* * *

molecular target: RIPK1 (recombinant GST-RIPK1 kinase domain, residues 1-327) (Homo sapiens (Human)); assay: RIPK1-ADP-Glo Enzymatic Assay; format: biochemical; settings: ADP-Glo; 25 nM GST-RIPK1, 300 μM ATP; assay lower limit ~25 nM; read-out: RIPK1 V0 Ec50
pEC50: −log10 of the molar value.
Short version: pEC50 at least 7 is Yes, less is No.

O=C1N2[C@@H](CC[C@H]2c2ccccc2F)OC12CCN(c1ccnc(Cl)c1)CC2 [Example 4.268]: Yes
CC(C)(O)C#Cc1cccc(C(=O)N2CCC3(CC2)O[C@@H]2CC[C@@H](c4cc(F)cc(F)c4)N2C3=O)c1 [Example 5.24]: Yes
O=C(c1ccsc1-n1nccn1)N1CCC2(CC1)O[C@@H]1CC[C@@H](c3cc(F)cc(F)c3)N1C2=O [Example 6.68]: No

## Input Reported pEC50 at or above 7? O=C1N2C(CCC2c2cccc(F)c2F)OC12CCN(c1ccnc3ccnn13)CC2 (stereo not drawn) [Example 20.7]
## Output Yes

## Input Check the entry O=C1N2[C@@H](CC[C@H]2c2ccccc2)OC12CCN(c1ccc(-c3cc(O)no3)cn1)CC2 [Example 4.193] : does pEC50 equal or exceed 7?
## Output Yes

* * *

Answer each item with its documented pEC50.
target: RIPK1 (recombinant GST-RIPK1 kinase domain, residues 1-327) (Homo sapiens (Human)); assay: RIPK1-ADP-Glo Enzymatic Assay; format: biochemical; conditions: ADP-Glo; 25 nM GST-RIPK1, 300 μM ATP; assay lower limit ~25 nM; read-out: RIPK1 V0 Ec50
Answers are plain numbers, as −log10 of the molar value.

O=C(c1nc2ncccc2s1)N1CCC2(CC1)O[C@@H]1CC[C@@H](c3cc(F)cc(F)c3)N1C2=O: 6.49
COC(=O)c1cnc(N2CCC3(CC2)O[C@@H]2CC[C@@H](c4ccccc4)N2C3=O)nc1: 6.16
O=C1N2[C@@H](CC[C@H]2c2cc(F)cc(F)c2)OC12CCN(C(c1ccccc1)C(F)F)CC2 (single isomer, unassigned): 6.61

## Input What pEC50 value was documented for this compound, `COc1cccnc1C(=O)N1CCC2(CC1)O[C@@H]1CC[C@@H](c3cc(F)cc(F)c3)N1C2=O` ?
## Output 6.03

* * *

biological target: RIPK1 (recombinant GST-RIPK1 kinase domain, residues 1-327) (Homo sapiens (Human), UniProt Q13546); assay: RIPK1-ADP-Glo Enzymatic Assay; type: biochemical; conditions: ADP-Glo; 25 nM GST-RIPK1, 300 μM ATP; assay lower limit ~25 nM; read-out: RIPK1 V0 Ec50
Assign pEC50 to each entry below.
Numbers only, as −log10 of the molar value.

Worked cases, answers included:
O=C1N2[C@@H](CC[C@H]2c2ccccc2)OC12CCN(c1ccnc(-c3ccccc3)n1)CC2: 7.47
CCOC(=O)c1nc(N2CCC3(CC2)O[C@@H]2CC[C@@H](c4cc(F)cc(F)c4)N2C3=O)ncc1F: 7.20

Next item in the queue.
## Input Query (compound): `N#Cc1cc(N2CCC3(CC2)C[C@@H]2OC[C@@H](c4ccccc4)N2C3=O)ncn1` ; field requested: pEC50
## Output 6.51

* * *

molecular target: RIPK1 (recombinant GST-RIPK1 kinase domain, residues 1-327) (Homo sapiens (Human), UniProt Q13546); test: RIPK1-ADP-Glo Enzymatic Assay; format: biochemical; conditions: ADP-Glo; 25 nM GST-RIPK1, 300 μM ATP; assay lower limit ~25 nM; read-out: RIPK1 V0 Ec50
Attribute measured: pEC50
One number for each entry, as −log10 of the molar value.

Known results for compounds:
O=C1N2[C@@H](CC[C@H]2c2ccccc2)OC12CCN(c1cccn3nccc13)CC2 [Example 4.150]: 7.46
N#Cc1ccc(N2CCC3(CC2)O[C@@H]2CC[C@@H](c4ccccc4)N2C3=O)n2ncc(-c3ncco3)c12 [Example 4.181]: 6.96
Cc1cnc(C(=O)N2CCC3(CC2)O[C@@H]2CC[C@@H](c4cc(F)cc(F)c4)N2C3=O)cn1 [Example 6.3]: 7.22

// moving on: another record for pEC50
## Input Would you kindly share the measured pEC50 for Cc1nc2sccn2c1C(=O)N1CCC2(CC1)O[C@@H]1CC[C@@H](c3cc(F)cc(F)c3)N1C2=O [Example 6.43] ?
## Output 6.82

* * *

target: RIPK1 (recombinant GST-RIPK1 kinase domain, residues 1-327) (Homo sapiens (Human), UniProt Q13546); assay: RIPK1-ADP-Glo Enzymatic Assay; format: biochemical; settings: ADP-Glo; 25 nM GST-RIPK1, 300 μM ATP; assay lower limit ~25 nM; read-out: RIPK1 V0 Ec50
Attribute measured: EC50 (nM)
Numbers only, in nM.

These recorded examples may help you get a feel for the data.
O=C(c1cccc(N2CCCC2)n1)N1CCC2(CC1)O[C@@H]1CC[C@@H](c3cc(F)cc(F)c3)N1C2=O: 31.6
COC(=O)c1ccc(N2CCC3(CC2)O[C@@H]2CC[C@@H](c4ccccc4)N2C3=O)nc1: 38.5
O=C1N2[C@H](OC13CCN(c1ccnc4ccnn14)CC3)[C@H](O)C[C@H]2c1ccccc1: 33.7
O=C(c1ccccc1)N1CCC2(CC1)O[C@@H]1CC[C@@H](c3cnsc3)N1C2=O: 558
Cc1ncccc1C(=O)N1CCC2(CC1)O[C@@H]1CC[C@@H](c3cc(F)cc(F)c3)N1C2=O: 528
Cc1cccc(CN2CCC3(CC2)O[C@@H]2CC[C@@H](c4cc(F)cc(F)c4)N2C3=O)c1: 701
O=C(c1cn2ccccc2n1)N1CCC2(CC1)O[C@@H]1CC[C@@H](c3cc(F)cc(F)c3)N1C2=O: 155
O=C1N2[C@@H](CC[C@H]2c2ccccc2)OC12CN(c1ncnc3ccnn13)C2: 235

List EC50 for every entry below, keeping the order given.
1. O=C1N2C(=NC13CCN(c1cc(-c4cnn(C(F)F)c4)ncn1)CC3)CC[C@H]2c1cc(F)cc(F)c1
2. Cc1nnc(C(=O)N2CCC3(CC2)O[C@@H]2CC[C@@H](c4cc(F)cc(F)c4)N2C3=O)o1
3. Cc1ncc(C(=O)N2CCC3(CC2)O[C@@H]2CC[C@@H](c4cc(F)cc(F)c4)N2C3=O)cn1
4. Cc1ccc(F)c(C(=O)N2CCC3(CC2)O[C@@H]2CC[C@@H](c4cc(F)cc(F)c4)N2C3=O)n1
5. Cc1ccnc(C(=O)N2CCC3(CC2)O[C@@H]2CC[C@@H](c4cc(F)cc(F)c4)N2C3=O)c1
6. O=C1N2[C@@H](CC[C@H]2c2ccccc2)OC12CCN(c1ccc(C3CC3)cn1)CC2

## Output
355
924
572
32.2
48.6
624
